Taken from PubChem BioAssay (Tox21).

- test-method-notes: qHTS assay to identify small molecule agonists of the progesterone receptor (PR) signaling pathway - cell viability counter screen (AID 1346799); further: nearly all actives have a fitted effect of over 45% in size
- study-conditions: PR-UAS-bla HEK293T viability, CellTiter-Glo luminescence, 16 h; series mostly up to 92.4 µM
Inconclusive results are not listed. Calls of active or inactive are those of the source. The call rests on the fitted dose curve.
The categories you may choose from are YES (active), NO (inactive)

Below, 4 molecules whose answers are already recorded.
given-smiles	label-class
CCCCCCCCCCCCCCCC	NO
CC=O	YES
CC(C)c1ccccc1N	NO
CCC(=O)OCCc1ccccc1	NO

Now for a further molecule.
**Query** So what was the verdict on CCc1cccc(CC)c1N(COC)C(=O)CS(=O)(=O)O in this test?
**Result** NO
